Biological target: C-CBL (Homo sapiens, UniProt P22681)
Construct: endogenous in cells; host or cells: Jurkat HiBit-IL2 reporter cells, CBL-B knocked out by CRISPR
Experiment: Jurkat HiBit-IL2 assay (CBL-B KO), reporter cell line expressing C-CBL only
Format: cell-based
Conditions: CBL-B KO (expressing C-CBL only), geometric mean, Table 16b (further repetition), read-out: CBL-B KO EC50 (nM) GMean
From the text: Jurkat HiBit-IL2 Assay (WT, c-CBL KO, CBL-B KO) The purpose of the Jurkat HiBit-IL2 assay is to evaluate the effect of the inhibition of CBL-B and/or C-CBL on TCR/CD28 stimulated interleukin-2 (IL-2) secretion. The expression of IL-2 can then be accurately measured by HiBit luciferase assay. Further, C-CBL or CBL-B was knocked out by CRISPR respectively in this Jurkat HiBit-IL2 reporter cell line to create reporter cell line expressing CBL-B only (c-CBL knockout (KO)) or C-CBL only (CBL-B KO). […]
Hi! Just check whether EC50 is below 300 nM. Below gives 1.0, equal or above gives 0.0.

| compound | system under test | group label |
| --- | --- | --- |
| CC(NC[C@H](C)O)c1nc(C(F)(F)F)cc2c(-c3cccc([C@H](c4nncn4C)C4CCCCC4)c3)n[nH]c12 (single isomer, unassigned) [Example C99] | C-CBL (Homo sapiens, UniProt P22681) | 0.0 |
| C[C@H](NC1CC(F)(F)C1)c1nc(C(F)(F)F)cc2c(-c3cccc([C@H](c4nncn4C)C4CCC4)c3)n[nH]c12 (single isomer, unassigned) | C-CBL (Homo sapiens, UniProt P22681) | 0.0 |
| C[C@@H](N[C@@H]1CC[C@H](O)C1)c1nc(C(F)(F)F)cc2c(-c3cccc([C@H](c4nncn4C)C4CCC4)c3)n[nH]c12 | C-CBL (Homo sapiens, UniProt P22681) | 0.0 |
| C[C@H](N[C@H]1CCC[C@@H]1O)c1nc(C(F)(F)F)cc2c(-c3cccc([C@H](c4nncn4C)C4CCC4)c3)n[nH]c12 (single isomer, unassigned) | C-CBL (Homo sapiens, UniProt P22681) | 1.0 |
| CC(C)NC(C)c1nc(C(F)(F)F)cc2c(-c3cccc([C@H](c4nncn4C)C4CCC4)c3)n[nH]c12 (single isomer, unassigned) | C-CBL (Homo sapiens, UniProt P22681) | 0.0 |
| CC(NCCO)c1nc(C(F)(F)F)cc2c(-c3cccc([C@H](c4nncn4C)C4CCC4)c3)n[nH]c12 (single isomer, unassigned) [Example C41] | C-CBL (Homo sapiens, UniProt P22681) | 0.0 |
| C[C@H](N[C@H]1CC[C@@H]1O)c1nc(C(F)(F)F)cc2c(-c3cccc([C@H](c4nncn4C)C4CCC4)c3)n[nH]c12 (single isomer, unassigned) | C-CBL (Homo sapiens, UniProt P22681) | 0.0 |
| C[C@@H](N[C@@H]1CCOC1)c1nc(C(F)(F)F)cc2c(-c3cccc([C@H](c4nncn4C)C4CCC4)c3)n[nH]c12 (single isomer, unassigned) | C-CBL (Homo sapiens, UniProt P22681) | 0.0 |
| C[C@@H](N[C@@H]1CC[C@@H]1O)c1nc(C(F)(F)F)cc2c(-c3cccc([C@H](c4nncn4C)C4CCC4)c3)n[nH]c12 (single isomer, unassigned) | C-CBL (Homo sapiens, UniProt P22681) | 1.0 |
| CC[C@H](c1cccc(-c2n[nH]c3c([C@H](C)NC[C@H](C)O)nc(C(F)(F)F)cc23)c1)c1nncn1C (single isomer, unassigned) | C-CBL (Homo sapiens, UniProt P22681) | 1.0 |
| CC(C)[C@H]1CNCCN1Cc1nc(C(F)(F)F)cc2c(-c3cccc([C@H](c4nncn4C)C4CCC4)c3)n[nH]c12 | C-CBL (Homo sapiens, UniProt P22681) | 0.0 |
| C[C@@H](N[C@H]1CCC[C@@H]1O)c1nc(C(F)(F)F)cc2c(-c3cccc([C@H](c4nncn4C)C4CCC4)c3)n[nH]c12 (single isomer, unassigned) | C-CBL (Homo sapiens, UniProt P22681) | 0.0 |
| C[C@@H](c1nc(C(F)(F)F)cc2c(-c3cccc([C@H](c4nncn4C)C4CCC4)c3)n[nH]c12)N1CC[C@H](O)C1 (single isomer, unassigned) [Example D71] | C-CBL (Homo sapiens, UniProt P22681) | 0.0 |
| C[C@@H](N[C@H]1C[C@@H](F)C1)c1nc(C(F)(F)F)cc2c(-c3cccc([C@H](c4nncn4C)C4CCC4)c3)n[nH]c12 (single isomer, unassigned) | C-CBL (Homo sapiens, UniProt P22681) | 0.0 |
| CC(O)CNC(C)c1nc(C2CC2)cc2c(-c3cccc(C(c4nncn4C)C4CCC4)c3)n[nH]c12 (single isomer, unassigned) [Example H2] | C-CBL (Homo sapiens, UniProt P22681) | 1.0 |
| C[C@H](N[C@@H]1CCC[C@@H]1O)c1nc(C(F)(F)F)cc2c(-c3cccc([C@H](c4nncn4C)C4CCC4)c3)n[nH]c12 (single isomer, unassigned) | C-CBL (Homo sapiens, UniProt P22681) | 1.0 |
| C[C@H](c1nc(C(F)(F)F)cc2c(-c3cccc([C@H](c4nncn4C)C4CCC4)c3)n[nH]c12)N1CC[C@H]1CO (single isomer, unassigned) | C-CBL (Homo sapiens, UniProt P22681) | 0.0 |
| C[C@@H](c1nc(C(F)(F)F)cc2c(-c3cccc([C@H](c4nncn4C)C4CCC4)c3)n[nH]c12)N1CC(C)(O)C1 (single isomer, unassigned) | C-CBL (Homo sapiens, UniProt P22681) | 0.0 |
| C[C@@H](O)CN[C@H](C)c1nc(C(F)(F)F)cc2c(-c3cccc([C@H](c4nncn4C)C4CCC4)c3)n[nH]c12 (single isomer, unassigned) | C-CBL (Homo sapiens, UniProt P22681) | 1.0 |
| C[C@H](O)CN[C@@H](C)c1nc(C(F)(F)F)cc2c(-c3cccc([C@H](c4nncn4C)C4CCC4)c3)n[nH]c12 (single isomer, unassigned) | C-CBL (Homo sapiens, UniProt P22681) | 1.0 |
